Recorded values, source paper PMC6081406.

# testTarget: GABAAR α3 subunit large cytoplasmic loop (AA 392-406) (UniProt P20236)
# assayProtocol: ITC; CB-SH3 titrated against the receptor loops and truncated constructs
readoutType: Kd

query: Please supply the value of reported Kd for the item SH3 domain of collybistin (CB-SH3) (domain or fragment, murine, UniProt Q3UTH8 4-72, looked up, collybistin CB1, murine, residues 4-72, encompassing the complete SH3 domain (residues 8-67); pGEX construct provided by T. Soykan (Brose lab); source: E. coli, purified (GST tag, in-situ thrombin cleavage, Superdex 200 SEC); not shown: GST, N-terminal, cleaved) LITGDSIVSAEAVWDHVTMANRELAFKAGDVIKVLDASNKDWWWGQIDDEEGWFPASFVRLWVNQEDGV
result: > 500 µM
